Values were extracted from patent US20130040390A1.

test system: Oct4-GFP MEFs; assay: iPS efficiency test: MEFs infected with SKO viruses, reprogrammed clones counted / GFP cell ratio by FCM; type: cell-based, mouse; settings: from dose-response in Basal3.0, day 10
The molecules listed here are annotated with their recommended working concentration.
Field format: number, assumed µg/mL, no unit text.

{"Molecule": "CCCCC/C=C\\C/C=C\\CCCCCCCC(=O)O", "Endpoint Result": 1}
{"Molecule": "O=C1O[C@H]([C@@H](O)CO)C(O)=C1O", "Endpoint Result": 50}

For the molecule shown here, O=C(O)CCCC[C@@H]1CCSS1 (racemic) , give the reported recommended working concentration.
0.2

// next record NCCO
1
